Target: LYPLA1 (Mus musculus)
Construct: a complex proteome endogenously expressing LYPLA1/2 was incubated with test compound; from tissue; host or cells: mouse brain, membrane fraction
Sequence (P97823 whole entry): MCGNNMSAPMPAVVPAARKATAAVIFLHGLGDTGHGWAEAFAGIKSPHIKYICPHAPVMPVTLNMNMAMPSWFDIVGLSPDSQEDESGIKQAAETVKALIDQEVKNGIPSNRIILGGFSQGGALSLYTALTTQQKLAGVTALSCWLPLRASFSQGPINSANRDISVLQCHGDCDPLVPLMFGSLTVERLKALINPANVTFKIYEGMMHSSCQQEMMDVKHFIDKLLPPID
Test: Gel-based competitive ABPP in vitro, mouse brain membrane proteome
Type: biochemical
Conditions: 1 μM compound, 30 min, one replicate; read-out: LYPLA1 % INH 1 μM
QUANTITY: inhibition at 1 µM (%)
Output spec: scalar in %, unitless text.

Some compounds with recorded inhibition at 1 µM:
I'd like to know its inhibition at 1 µM. The compound in question is CC(C)(C)CC(=O)N1CCN2C(=O)N(OC(=O)N3CCC(CCc4ccc(Cl)cc4)CC3)C(=O)C2C1 (stereo not shown) [Compound 4]
100

Query (compound): O=C(ON1C(=O)C2CN(Cc3ccc(Br)cc3)CCN2C1=O)N1CCC(CCc2ccc(Cl)cc2)CC1 (stereo not shown) [Compound 13] ; field requested: inhibition at 1 µM
10

Entry O=C(ON1C(=O)C2CN(C(=O)N3CCOCC3)CCN2C1=O)N1CCC(CCc2ccc(Cl)cc2)CC1 (stereo not shown) [Compound 1] : reported inhibition at 1 µM = ?
100

Please give the measured inhibition at 1 µM for this compound: COc1ccc(C(=O)N2CCN3C(=O)N(OC(=O)N4CCC(CCc5ccc(Cl)cc5)CC4)C(=O)C3C2)cc1 (stereo not shown) [Compound 11]
90

Look up inhibition at 1 µM for this compound: CC(C)(C)OC(=O)N1CCN2C(=O)N(OC(=O)N3CCN(C(c4ccc(Cl)cc4)c4ccc(Cl)cc4)CC3)C(=O)C2C1 (stereo not shown) [Compound 18]
10

What inhibition at 1 µM value was documented for this compound, CC(C)(C)OC(=O)N1CCN2C(=O)N(OC(=O)N3CCOCC3Cc3ccccc3)C(=O)C2C1 (stereo not shown) [Compound 16] ?
0

I have this compound here, Cc1ccc(C(=O)N2CCN3C(=O)N(OC(=O)N4CCC(CCc5ccc(Cl)cc5)CC4)C(=O)C3C2)cc1 (stereo not shown) [Compound 8] , and I need its recorded inhibition at 1 µM.
75

I have this compound here, O=C(Cc1ccccc1)N1CCN2C(=O)N(OC(=O)N3CCC(CCc4ccc(Cl)cc4)CC3)C(=O)C2C1 (stereo not shown) [Compound 6] , and I need its recorded inhibition at 1 µM.
95

State the recorded inhibition at 1 µM for this entry: CC(C)(C)OC(=O)N1CCN2C(=O)N(OC(=O)N3CCC(C(=O)Nc4ccccc4)CC3)C(=O)C2C1 (stereo not shown) [Compound 19]
0

GET /values?readout=inhibition at 1 µM&item= CC(C)(C)OC(=O)N1CCN2C(=O)N(OC(=O)N3CCCCC3)C(=O)C2C1 (stereo not shown) [Compound 14]
0

Others:
Please look up its inhibition at 1 µM: COC(=O)C1CCN(C(=O)ON2C(=O)C3CN(C(=O)OC(C)(C)C)CCN3C2=O)CC1 (stereo not shown) [Compound 15]
0

State the recorded inhibition at 1 µM for this entry: O=C(ON1C(=O)C2CN(C(=O)N3CCCC3)CCN2C1=O)N1CCC(CCc2ccc(Cl)cc2)CC1 (stereo not shown) [Compound 3]
100

// lookup inhibition at 1 µM for O=C(ON1C(=O)C2CN(C(=O)c3ccc(Br)cc3)CCN2C1=O)N1CCC(CCc2ccc(Cl)cc2)CC1 (stereo not shown) [Compound 7]
80

Hey, just so you know, these numbers are from patent US9981972B2.
